Molecular target: EGFR (d746-750/T790M/C797S) (Homo sapiens (Human), UniProt P00533, C797S/DEL746-750/T790M)
Sequence (P00533 other isoform, or with tags, fused parts or gaps T790M/C797S/del 1-694/del 746-750 limits assumed): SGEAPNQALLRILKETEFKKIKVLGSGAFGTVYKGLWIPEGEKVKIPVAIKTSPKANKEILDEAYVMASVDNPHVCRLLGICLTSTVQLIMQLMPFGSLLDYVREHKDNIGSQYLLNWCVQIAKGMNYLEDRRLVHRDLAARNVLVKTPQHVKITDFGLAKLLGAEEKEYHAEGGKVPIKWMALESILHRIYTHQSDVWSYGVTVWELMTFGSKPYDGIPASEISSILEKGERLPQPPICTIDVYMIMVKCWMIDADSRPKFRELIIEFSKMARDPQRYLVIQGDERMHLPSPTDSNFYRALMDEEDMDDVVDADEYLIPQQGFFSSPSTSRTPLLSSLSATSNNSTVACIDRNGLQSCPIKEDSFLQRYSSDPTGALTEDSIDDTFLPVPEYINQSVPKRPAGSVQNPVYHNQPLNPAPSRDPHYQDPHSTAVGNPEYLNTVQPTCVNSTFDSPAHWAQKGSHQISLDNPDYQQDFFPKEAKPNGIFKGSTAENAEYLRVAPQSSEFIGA
Experiment: Inhibitory activity for EGFR (d746-750/T790M/C797S) kinase
Settings: ATP 5 μM; read-out: EGFR(d19/T790M/C797S) (IC50)
pIC50: −log10 of the molar value.
Recorded pIC50 by entry
outcome.measure: pIC50

{"columns": ["molecule", "outcome.measure", "measurement"],
 "data": [
  ["Cc1cc2cc(n1)-c1cnn(C3CC3)c1OCCC[C@@H](C)CN1/C(=N/C2=O)Nc2cc(N[C@@H]3CCOC3)ccc21 [Example 13]", "pIC50", 9.96],
  ["Cc1cc2cc(n1)-c1cnn(C)c1OCCC[C@@H](C1CC1)CN1/C(=N/C2=O)Nc2cc(N[C@H](C)C3COC3)ccc21 [Example 39]", "pIC50", 10.62],
  ["Cc1cc2cc(n1)-c1cnn(C)c1OCCC[C@@H](C1CC1)CN1/C(=N/C2=O)Nc2ccc(N(C)CCN(C)C)cc21 [Example 45]", "pIC50", 10.74]
]}

----------
Experiment: In vivo pharmacokinetics in ICR mice
Conditions: mouse, plasma, 1 mg/kg, IV, read-out: T½ (converted)

{"columns": ["structure.smiles.string", "half-life, h"],
 "data": [
  ["Cc1cc2cc(n1)-c1cnn(C)c1OCCC[C@@H](C1CC1)CN1/C(=N/C2=O)Nc2cc(NC3(C)COC3)ccc21", 1.65],
  ["Cc1cc2cc(n1)-c1cnn(C)c1OCCC[C@@H](C1CC1)CN1/C(=N/C2=O)Nc2ccc(N[C@H]3C[C@H](N(C)C)C3)cc21", 2.17],
  ["Cc1cc2cc(n1)-c1cnn(C)c1OCCC[C@@H](C1CC1)CN1/C(=N/C2=O)Nc2ccc(NCCN(C)C)cc21", 4.64],
  ["Cc1cc2cc(n1)-c1cnn(C)c1OCCC[C@@H](C1CC1)CN1/C(=N/C2=O)Nc2ccc(N(C)C3CCN(C)CC3)cc21", 2.18],
  ["Cc1cc2cc(n1)-c1cnn(C)c1OCCC[C@@H](C1CC1)CN1/C(=N/C2=O)Nc2cc(NCCCN3CCOCC3)ccc21", 1.84],
  ["CCC1(Nc2ccc3c(c2)N/C2=N\\C(=O)c4cc(C)nc(c4)-c4cnn(C)c4OCCC[C@@H](C4CC4)CN23)COC1", 1.58]
]}

----------
Assay: In vitro stability in liver microsomes
Type: in vitro ADME
Conditions: Human liver microsome
compounds and their reported Stability in liver microsomes (residual %, T = 60 min)
outcome.measure: Stability in liver microsomes (residual %, T = 60 min) (%)

{"columns": ["structure.smiles.string", "measurement"],
 "data": [
  ["Cc1cc2cc(n1)-c1cnn(C)c1OCCC[C@@H](C1CC1)CN1/C(=N/C2=O)Nc2cc(N[C@H]3CC[C@@H](N(C)C)CC3)ccc21", 98.30],
  ["Cc1cc2cc(n1)-c1cnn(C)c1OCCC[C@@H](C1CC1)CN1/C(=N/C2=O)Nc2cc(N[C@@H](C)CN(C)C)ccc21", 78.57],
  ["Cc1cc2cc(n1)-c1cnn(C)c1OCCC[C@@H](C1CC1)CN1/C(=N/C2=O)Nc2cc(NCCCN3CCCCC3)ccc21", 82.82],
  ["Cc1cc2cc(n1)-c1cnn(C)c1OCCC[C@@H](C1CC1)CN1/C(=N/C2=O)Nc2cc(N[C@@H]3CC[C@@H](N(C)C)C3)ccc21", 92.24],
  ["C[C@H](Nc1ccc2c(c1)N/C1=N\\C(=O)c3cc(F)nc(c3)-c3cnn(C)c3OCCC[C@@H](C3CC3)CN12)C(F)(F)F", 59.54],
  ["Cc1cc2cc(n1)-c1cnn(C)c1OCCC[C@@H](C1CC1)CN1/C(=N/C2=O)Nc2cc(NCCCN(C)C)ccc21", 80.24]
]}
